meta.source: the supplement of paper PMC11061612

Tested on: DSH1 (Bladder Carcinoma)
Experiment: combination Emax (second highest fraction inhibited in the dose matrix, 72 h); higher = more inhibition; extreme values may be limits of the assay
Please respond with reported combination Emax for every item in the list.
Write the number on its own, no unit after it.

Checklist item: combination Emax tested on DSH1 (Bladder Carcinoma), entry CS(=O)(=O)CCNCc1ccc(-c2ccc3ncnc(Nc4ccc(OCc5cccc(F)c5)c(Cl)c4)c3c2)o1 [Lapatinib] + C[C@@H](Oc1cc(-c2cnn(C3CCNCC3)c2)cnc1N)c1c(Cl)ccc(F)c1Cl [Crizotinib] (first compound max 10 µM, 7x7, partner max 10 µM) , value? 1

Checklist item: combination Emax tested on DSH1 (Bladder Carcinoma), entry C[C@@H]1COCCN1c1cc(C2([S@](C)(=N)=O)CC2)nc(-c2ccnc3[nH]ccc23)n1 [AZD6738] + O=C(c1cc(Cc2n[nH]c(=O)c3ccccc23)ccc1F)N1CCN(C(=O)C2CC2)CC1 [Olaparib] (first compound max 10 µM, 7x7, partner max 10 µM) , value? 0.752

Checklist item: combination Emax tested on DSH1 (Bladder Carcinoma), entry CN(C)CCCOc1ccc(-c2ccc3ncc4c(c3c2)n(C2CCOCC2)c(=O)n4C)cn1 [AZD0156] + CCN(CCO)CCCOc1ccc2c(Nc3cc(CC(=O)Nc4cccc(F)c4)[nH]n3)ncnc2c1 [AZD2811] (first compound max 1 µM, 7x7, partner max 1 µM) , value? 0.211

Checklist item: combination Emax tested on DSH1 (Bladder Carcinoma), entry N#Cc1cnc(Nc2cc(NC[C@H]3CNCCO3)c(C(F)(F)F)cn2)cn1 [SRA737] + Nc1ccn([C@@H]2O[C@H](CO)[C@@H](O)C2(F)F)c(=O)n1 [Gemcitabine] (first compound max 10 µM, 7x7, partner max 0.3 µM) , value? 0.972

Checklist item: combination Emax tested on DSH1 (Bladder Carcinoma), entry C[C@@H](c1ccc2nccn2c1)n1nnc2ncc(-c3cnn(C)c3)nc21 [Savolitinib] + CC1(C)CCC(CN2CCN(c3ccc(C(=O)NS(=O)(=O)c4ccc(NCC5CCOCC5)c([N+](=O)[O-])c4)c(Oc4cnc5[nH]ccc5c4)c3)CC2)=C(c2ccc(Cl)cc2)C1 [Venetoclax] (first compound max 1 µM, 7x7, partner max 1 µM) , value? 0.286

Checklist item: combination Emax tested on DSH1 (Bladder Carcinoma), entry C[C@@H](Nc1cc(F)cc(F)c1)c1cc(C(=O)N(C)C)cc2c(=O)cc(N3CCOCC3)oc12 [AZD8186] + CC(=O)c1c(C)c2cnc(Nc3ccc(N4CCNCC4)cn3)nc2n(C2CCCC2)c1=O [Palbociclib] (first compound max 10 µM, 7x7, partner max 10 µM) , value? 0.471

Checklist item: combination Emax tested on DSH1 (Bladder Carcinoma), entry Cc1c2c(nn1C)CSCc1cc(n(C)n1)CSc1cc(c3ccccc3c1)OCCCc1c(C(=O)O)n(C)c3c-2c(Cl)ccc13 [AZD5991] + C=CCn1c(=O)c2cnc(Nc3ccc(N4CCN(C)CC4)cc3)nc2n1-c1cccc(C(C)(C)O)n1 [AZD1775] (first compound max 1 µM, partner max 1 µM) , value? 0.791

Checklist item: combination Emax tested on DSH1 (Bladder Carcinoma), entry COc1cccc(OCCCN)c1-c1cc(Nc2cnc(C#N)cn2)n[nH]1 [Prexasertib] + CN(C)CCCOc1ccc(-c2ccc3ncc4c(c3c2)n(C2CCOCC2)c(=O)n4C)cn1 [AZD0156] (first compound max 1 µM, 7x7, partner max 1 µM) , value? 0.82

Checklist item: combination Emax tested on DSH1 (Bladder Carcinoma), entry CC1(C)CCC(CN2CCN(c3ccc(C(=O)NS(=O)(=O)c4ccc(NCC5CCOCC5)c([N+](=O)[O-])c4)c(Oc4cnc5[nH]ccc5c4)c3)CC2)=C(c2ccc(Cl)cc2)C1 [Venetoclax] + CN(C)CCCOc1ccc(-c2ccc3ncc4c(c3c2)n(C2CCOCC2)c(=O)n4C)cn1 [AZD0156] (first compound max 1 µM, 7x7, partner max 1 µM) , value? 0.156

Checklist item: combination Emax tested on DSH1 (Bladder Carcinoma), entry C=CCn1c(=O)c2cnc(Nc3ccc(N4CCN(C)CC4)cc3)nc2n1-c1cccc(C(C)(C)O)n1 [AZD1775] + C[C@@H]1COCCN1C2=NC(=NC(=C2)C3(CC3)[S@](=N)(=O)C)C4=C5C=CNC5=NC=C4 [AZD6738] (first compound max 1 µM, partner max 10 µM) , value? 0.862

Checklist item: combination Emax tested on DSH1 (Bladder Carcinoma), entry COc1cccc(OCCCN)c1-c1cc(Nc2cnc(C#N)cn2)n[nH]1 [Prexasertib] + C[C@@H]1COCCN1C2=NC(=NC(=C2)C3(CC3)[S@](=N)(=O)C)C4=C5C=CNC5=NC=C4 [AZD6738] (first compound max 1 µM, 7x7, partner max 10 µM) , value? 0.852

Checklist item: combination Emax tested on DSH1 (Bladder Carcinoma), entry Cn1cnc2c(F)c(Nc3ccc(Br)cc3Cl)c(C(=O)NOCCO)cc21 [Selumetinib] + CC(C)n1c(=O)n(C)c2cnc3cc(F)c(-c4ccc(OCCCN5CCCCC5)nc4)cc3c21 [AZD1390] (first compound max 10 µM, 7x7, partner max 0.3 µM) , value? 0.323

Checklist item: combination Emax tested on DSH1 (Bladder Carcinoma), entry COc1cccc(OCCCN)c1-c1cc(Nc2cnc(C#N)cn2)n[nH]1 [Prexasertib] + Cc1cc2ncnn2cc1Nc1ncc2c(n1)n(C1CCOCC1)c(=O)n2C [AZD7648] (first compound max 1 µM, 7x7, partner max 10 µM) , value? 0.768

Checklist item: combination Emax tested on DSH1 (Bladder Carcinoma), entry C=CCn1c(=O)c2cnc(Nc3ccc(N4CCN(C)CC4)cc3)nc2n1-c1cccc(C(C)(C)O)n1 [AZD1775] + C1CN(CCC1(C(=O)N[C@@H](CCO)C2=CC=C(C=C2)Cl)N)C3=NC=NC4=C3C=CN4 [Capivasertib] (first compound max 3 µM, partner max 3 µM) , value? 0.789

###

Tested on: C3A (Hepatocellular Carcinoma)
Assay: combination Emax (second highest fraction inhibited in the dose matrix, 72 h); higher = more inhibition; extreme values may be limits of the assay
Please respond with reported combination Emax for every item in the list.
Write the number on its own, no unit after it.

Returns the measured combination Emax for the input compound. Input: COc1nnc2ccc(N3CCC(c4ccc(OCCN5CCN(C)C(=O)[C@H]5C)cc4)CC3)nn12 [AZD5153] + CCN(CCO)CCCOc1ccc2c(Nc3cc(CC(=O)Nc4cccc(F)c4)[nH]n3)ncnc2c1 [AZD2811] (first compound max 1 µM, 7x7, partner max 1 µM) 0.524

Returns the measured combination Emax for the input compound. Input: CN(C)CCCOc1ccc(-c2ccc3ncc4c(c3c2)n(C2CCOCC2)c(=O)n4C)cn1 [AZD0156] + C[C@@H]1COCCN1C2=NC(=NC(=C2)C3(CC3)[S@](=N)(=O)C)C4=C5C=CNC5=NC=C4 [AZD6738] (first compound max 1 µM, 7x7, partner max 10 µM) 0.584

###

System: LS-513 (Colorectal Carcinoma)
Experiment: combination Emax (second highest fraction inhibited in the dose matrix, 72 h); higher = more inhibition; extreme values may be limits of the assay
Please respond with reported combination Emax for every item in the list.
Write the number on its own, no unit after it.

Returns the measured combination Emax for the input compound. Input: CN(CCO)CC[C@H](CSc1ccccc1)Nc1ccc(S(=O)(=O)NC(=O)c2ccc(N3CCC([C@@H](O)c4ccccc4-c4ccc(Cl)cc4)CC3)cc2)cc1S(=O)(=O)C(F)(F)F [AZD4320] + Cn1cnc2c(F)c(Nc3ccc(Br)cc3Cl)c(C(=O)NOCCO)cc21 [Selumetinib] (first compound max 1 µM, 7x7, partner max 3 µM) 0.941

Returns the measured combination Emax for the input compound. Input: Cc1c2c(nn1C)CSCc1cc(n(C)n1)CSc1cc(c3ccccc3c1)OCCCc1c(C(=O)O)n(C)c3c-2c(Cl)ccc13 [AZD5991] + Nc1ccn([C@@H]2O[C@H](CO)[C@@H](O)C2(F)F)c(=O)n1 [Gemcitabine] (first compound max 1 µM, 7x7, partner max 0.3 µM) 0.814

Returns the measured combination Emax for the input compound. Input: C[C@@H]1COCCN1c1cc(C2([S@](C)(=N)=O)CC2)nc(-c2ccnc3[nH]ccc23)n1 [AZD6738] + O=C(c1cc(Cc2n[nH]c(=O)c3ccccc23)ccc1F)N1CCN(C(=O)C2CC2)CC1 [Olaparib] (first compound max 10 µM, 7x7, partner max 10 µM) 0.722

###

System: U-266 (Plasma Cell Myeloma)
Test: combination Emax (second highest fraction inhibited in the dose matrix, 72 h); higher = more inhibition; extreme values may be limits of the assay
readoutType: combination Emax
Write the number on its own, no unit after it.

Returns the measured combination Emax for the input compound. Input: Cc1c2c(nn1C)CSCc1cc(n(C)n1)CSc1cc(c3ccccc3c1)OCCCc1c(C(=O)O)n(C)c3c-2c(Cl)ccc13 [AZD5991] + CC(=O)O[C@H]1C(=O)[C@@]2(C)[C@H]([C@H](OC(=O)c3ccccc3)[C@]3(O)C[C@H](OC(=O)[C@H](O)[C@@H](NC(=O)c4ccccc4)c4ccccc4)C(C)=C1C3(C)C)[C@]1(OC(C)=O)CO[C@@H]1C[C@@H]2O [Paclitaxel] (first compound max 1 µM, 7x7, partner max 3 µM) 0.993

Returns the measured combination Emax for the input compound. Input: COc1nnc2ccc(N3CCC(c4ccc(OCCN5CCN(C)C(=O)[C@H]5C)cc4)CC3)nn12 [AZD5153] + Cn1cnc2c(F)c(Nc3ccc(Br)cc3Cl)c(C(=O)NOCCO)cc21 [Selumetinib] (first compound max 1 µM, 7x7, partner max 10 µM) 0.542
